Below, each entry is listed with its recorded protein stability index.
B1: RIPK4 (parent)
chain: VIDLFDEQGLSALHLAAQGRHAQT

Variants of: B1
ASSAY SUMMARY: protein stability index of a GFP-peptide fusion (GPS, HEK-293T) (PSI 1-6); higher = more stable;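 further: lentivirally expressed fusions sorted by FACS into six bins by GFP to DsRed ratio, PSI derived from sequencing read proportions per bin multiplied by bin number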
MEASUREMENT SETUP: c terminus: a fixed tail appended
Provide a numeric answer; units are not to be included.

Record excerpt, results attached:
Q8D : 3.07
H21N : 3.06

Exercise: Consider the variant shown here: A12S What is its recorded protein stability index?
Key: 2.96

Exercise: Consider the variant shown here: S11D What is its recorded protein stability index?
Key: 3.04

Exercise: Consider the variant shown here: R20N What is its recorded protein stability index?
Key: 3.02

Exercise: Consider the variant shown here: H21P What is its recorded protein stability index?
Key: 3.01

Exercise: Consider the variant shown here: A22N What is its recorded protein stability index?
Key: 3.09

Exercise: Consider the variant shown here: F5N What is its recorded protein stability index?
Key: 2.98

Exercise: Consider the variant shown here: S11Q What is its recorded protein stability index?
Key: 2.95
